The reported measurements were obtained from PubChem BioAssay (NCI).

# System: SN12C renal
# Assay protocol: NCI-60 one-dose screen, 48 h (100 = growth as untreated, 0 = no growth, -100 = all killed)
# Condition details: 10 µM unless noted
About 83,000 compounds went through this panel and 20% of them were active in at least one assay; those are over-represented in the sample as a whole.
Parameter: growth (%)
State the answer as a number, implicitly in %.

Report growth for COC(=O)CCSC1=C(C)C(=O)c2ccccc2C1=O please.
92.5

Report growth for CCCC[n+]1ccc(SCC(=O)n2ccc3ccccc32)c2ccccc21 please.
96.5

Report growth for O=C(CSc1nc2ccccc2c(=O)n1-c1ccc(Cl)cc1)N/N=C/c1ccc(Oc2ccc(Cl)cc2)cc1 please.
45.3

Report growth for Cc1ccc(NC2=C(Cl)C(=O)c3nc(C)ccc3C2=O)c(C)c1 please.
-69.1

Report growth for COC(=O)c1ccc(NC2=C(Cl)C(=O)C(C)=C(C)C2=O)cc1 please.
80.2

Report growth for CCN1CCN(c2ccc(NC(=O)Nc3ccc4c(ccn4-c4ccnc(C(=O)NC)c4)c3)cc2C(F)(F)F)CC1 please.
90.8

Report growth for CCN(CC)c1ccc(/C=N/NC(=O)c2ccc(NS(C)(=O)=O)cc2)cc1 please.
37.5

Report growth for Fc1cccc(Cl)c1/C=N/Nc1nc(N/N=C/c2c(F)cccc2Cl)nc(N2CCCCC2)n1 please.
23.2

Report growth for CCc1cccc2c3c(sc12)C(c1ccc(F)cc1)C(C#N)=C(/N=C/c1ccc(Cl)cc1)O3 (stereo not given) please.
32.4

Report growth for NS(=O)(=O)c1ccc(CCn2c(-c3ccc(C(=O)O)cc3)nc(-c3ccccc3)c2-c2ccccc2)cc1 please.
101

Report growth for CCN(CC)CCOc1ccc(C(=C(C)c2ccc(OC)cc2)c2ccc(OCCN(CC)CC)cc2)cc1 please.
34.6

Report growth for CN1c2ccccc2Sc2cc(/C=N/Nc3ccnc4cc(Cl)ccc34)ccc21 please.
95.7

Report growth for COc1ccc2sc(NC(=O)CCCCCCNC(=O)C(O)(O)C(F)(F)F)nc2c1 please.
10.5

Report growth for Cc1ccc2c(n1)C(=O)C(Cl)=C(Nc1ccc(C)c(C)c1)C2=O please.
0.141

Report growth for O=C1Nc2cc(Cl)ccc2/C1=C\c1ccc(OCc2ccccc2)cc1 please.
96

Report growth for CN1CCN(c2ccc(Nc3nc(NCCCNS(=O)(=O)c4ccccc4)c4sccc4n3)cc2)CC1 please.
72.7

Report growth for NS(=O)(=O)c1ccc(Nc2nc(N/N=C/C=C/c3ccccc3)nc(Nc3ccccc3)n2)cc1 please.
48.1

Report growth for NCCNC(=O)c1cccc(COc2ccccc2NC(=O)c2cc(Cl)c(Cl)[nH]2)c1 please.
100

Report growth for CCOC(=O)c1c(N)c(C#N)cn1Cc1ccc(Cl)cc1Cl please.
81.2

Report growth for CSc1ccc(C(=NNS(=O)(=O)c2ccc(C)cc2)c2ccc(Cl)cc2)cc1 please.
92.7

====

Could you please report measured growth for the items listed next?
# System: OVCAR-5 ovarian
# Assay protocol: NCI-60 one-dose screen, 48 h (100 = growth as untreated, 0 = no growth, -100 = all killed)
# Condition details: 10 µM unless noted
This is part of a sample that, as a whole, favours compounds with a hit. Of some 83,000 tested, about 20% had one in any assay.
State the answer as a number, implicitly in %.

Report growth for COC(=O)CCSC1=C(C)C(=O)c2ccccc2C1=O please.
104

Report growth for N#Cc1cnc2ccc(-c3cnc4n[nH]nc4c3)cc2c1N1CCc2cc(F)c(Cl)cc21 please.
31.6

Report growth for O=C1Nc2ccccc2/C1=N\c1nnc(-c2ccccc2)o1 please.
106

Report growth for COc1ccc(/C=N/NC(=O)CSc2nc(-c3cnccn3)cc(-c3cccs3)c2C#N)cc1OC please.
104

Report growth for N#Cc1c(-c2cccs2)cc(-c2cnccn2)nc1SCC(=O)N/N=C/c1cccs1 please.
82.8

====

# Test system: SR leukemia
# Assay protocol: NCI-60 one-dose screen, 48 h
# Condition details: 10 µM unless noted
About 83,000 compounds went through this panel and 20% of them were active in at least one assay; those are over-represented in the sample as a whole. Calls of active or inactive are those of the source. How the source made its calls: active means growth percent below 10; inactive means the rest.
Please answer using one outcome listed in active, inactive

Hi, sorry to bother you, what did the test record for O=C1[C@H]2Cc3c([nH]c4ccccc34)[C@H](c3ccc(Br)cc3)N2C(=O)CN1C1CCN(CC2CCCCC2)CC1 ?
active

Hi, sorry to bother you, what did the test record for O=C(N/N=C\c1ccc(F)cc1)c1ccc2nc(-c3ccc(Br)cc3)[nH]c2c1 ?
inactive

Hi, sorry to bother you, what did the test record for CNC(=O)c1cc(Oc2ccc3c(c2)sc2nc(-c4ccc(N(C)C)cc4)cn23)ccn1 ?
inactive

Hi, sorry to bother you, what did the test record for Cc1cc(C)cc(NC2=C(Cl)C(=O)c3nc(C)ccc3C2=O)c1 ?
inactive

Hi, sorry to bother you, what did the test record for CCCCCC[n+]1ccc(SCC(=O)n2ccc3ccccc32)c2ccccc21 ?
inactive

Hi, sorry to bother you, what did the test record for COc1ccc(-c2nc(C#N)c(N3CCC(S(=O)(=O)N4CCOCC4)CC3)o2)cc1 ?
inactive

Hi, sorry to bother you, what did the test record for O=C(NCCNc1cc(-c2cn(-c3ccccc3)nc2-c2cccc(O)c2)ccn1)Nc1cc(C(F)(F)F)cc(C(F)(F)F)c1 ?
inactive

Hi, sorry to bother you, what did the test record for CNCCN(C)c1ccc(Nc2cc(NC3CC3)n3ncc(C#N)c3n2)cc1NC(C)=O ?
active

Hi, sorry to bother you, what did the test record for COc1ccc(-c2cc(-c3ccc(N(C)C)cc3)n3c(n2)nc2ccccc23)cc1 ?
inactive

Hi, sorry to bother you, what did the test record for CCOC(=O)Nc1ccc2c(ccn2C(=O)c2cccc(F)c2)c1 ?
inactive

Hi, sorry to bother you, what did the test record for N#C/C(=N\Nc1ccc(F)cc1)C(=O)Nc1cc(-c2ccccc2)nn1-c1ccccc1 ?
inactive

Hi, sorry to bother you, what did the test record for CCOC(=O)C1=C(C)NC(C)=C(C(=O)OC(C)C)C1c1cccc(C#N)c1 (stereo not given) ?
inactive

Hi, sorry to bother you, what did the test record for C/C(=N\NC(=O)Nc1ccccc1)c1nnn(-c2ccc([N+](=O)[O-])cc2)c1C ?
inactive

Hi, sorry to bother you, what did the test record for CC1=C(C)C(=O)C(Nc2ccc(C)c(C)c2)=C(Br)C1=O ?
inactive

Hi, sorry to bother you, what did the test record for COc1ccc(-c2cc(-c3ccc(N4CCOCC4)cc3)n3c(n2)nc2ccccc23)cc1OC ?
inactive

Hi, sorry to bother you, what did the test record for O=C(/C=C/c1cccc(C(F)(F)F)c1)Nc1cccc(C(F)(F)F)c1 ?
inactive

Hi, sorry to bother you, what did the test record for CC1CC(=O)C2=C(C1)Nc1ccc(Br)cc1CC2c1c[nH]c2ccc(Br)cc12 (stereo not given) ?
inactive

Hi, sorry to bother you, what did the test record for CCCCSC1=C(Cl)CN(c2ccccc2)C1=O ?
inactive

Hi, sorry to bother you, what did the test record for CC1=C(C)C(=O)C(Nc2cccc(C(F)(F)F)c2)=C(Br)C1=O ?
inactive

Hi, sorry to bother you, what did the test record for O=c1c2cc(-c3ccc(F)cc3F)ccc2n(Nc2ccccc2)c(=O)n1-c1cccc(C(F)(F)F)c1 ?
active

====

# Test system: MDA-MB-231 breast
# Assay protocol: NCI-60 one-dose screen, 48 h
# Condition details: 10 µM unless noted
This is part of a sample that, as a whole, favours compounds with a hit. Of some 83,000 tested, about 20% had one in any assay. Activity calls are given as the source filed them. Rule for the calls: active = growth percent below 10; inactive = the rest.
Please answer using one outcome listed in True (active), False (inactive)

Hi, sorry to bother you, what did the test record for CNC(=O)c1cc(-c2ccc(NC(=S)Nc3cccc(C(F)(F)F)c3)cc2)nc2cccnc12 ?
False

Hi, sorry to bother you, what did the test record for O=C(Nc1ccc(Cl)c(C(F)(F)F)c1)Nc1ccc2c(ccn2C(=O)c2cccc(F)c2)c1 ?
False

Hi, sorry to bother you, what did the test record for O=C(CCCCCCNC(=O)C(O)(O)C(F)(F)F)Nc1ccc(-c2ccccc2)cc1 ?
False

Hi, sorry to bother you, what did the test record for CCNC(=O)Oc1ccc(/C(=C(/C)c2ccc(OC)cc2)c2ccc(OCCN3CCCCCC3)cc2)cc1 ?
False

Hi, sorry to bother you, what did the test record for O=C(/C=C/C=C/c1csc(Br)n1)NO ?
False

Hi, sorry to bother you, what did the test record for Clc1cccc(/C=N/Nc2nc(N/N=C/c3cccc(Cl)c3)nc(N3CCOCC3)n2)c1 ?
False

Hi, sorry to bother you, what did the test record for CN1CCN(Cc2ccc(NC(=O)c3cncc(C#Cc4cnc5ccc(OCCCS(C)(=O)=O)nn45)c3)cc2C(F)(F)F)CC1 ?
True

Hi, sorry to bother you, what did the test record for COc1ccc(C(C)=C(c2ccc(OCCN3CCCCCC3)cc2)c2ccc(OCCN3CCCCCC3)cc2)cc1 ?
True

Hi, sorry to bother you, what did the test record for CN(C)CCNc1ccc2ncc(C#Cc3cncc(C(=O)Nc4ccc(CN5CCN(C)CC5)c(C(F)(F)F)c4)c3)n2n1 ?
True
